Origin of measurements: BigSolDB 2.1

- CONDITION_DETAILS: in acetonitrile, 308.15 K
ATTRIBUTE_MEASURED: solubility (mole fraction)

Input line: Quick one: solubility (mole fraction) of `O=C(O)Cc1ccc([N+](=O)[O-])cc1` ?
Output line: 0.0449

* * *

- CONDITION_DETAILS: in DMF, 328.15 K
ATTRIBUTE_MEASURED: solubility (mole fraction)
Lab note: jot down the number only; don't add units.

Input line: Name the reported solubility (mole fraction) value associated with the molecule `O=C(O)Cc1ccc([N+](=O)[O-])cc1`
Output line: 0.417

* * *

- CONDITION_DETAILS: in ethylene glycol, 318.15 K
ATTRIBUTE_MEASURED: solubility (mole fraction)

Input line: Which solubility (mole fraction) value belongs to `O=C(O)Cc1ccc([N+](=O)[O-])cc1` ?
Output line: 0.0503

* * *

- CONDITION_DETAILS: in ethylene glycol, 293.15 K
ATTRIBUTE_MEASURED: solubility (mole fraction)
Answer using only a numeral; do not append any unit.

Input line: # query: solubility (mole fraction) of entry `O=C(O)Cc1ccc([N+](=O)[O-])cc1`
Output line: 0.0213

* * *

- CONDITION_DETAILS: in n-propanol, 288.15 K
ATTRIBUTE_MEASURED: solubility (mole fraction)
// no unit string in output, number only

Input line: GET /values?readout=solubility (mole fraction)&item= `O=C(O)Cc1ccc([N+](=O)[O-])cc1`
Output line: 0.0589

* * *

- CONDITION_DETAILS: in isopropanol, 283.15 K
ATTRIBUTE_MEASURED: solubility (mole fraction)
Could you keep your reply to the number by itself?

Input line: Name the reported solubility (mole fraction) value associated with the compound `O=C(O)Cc1ccc([N+](=O)[O-])cc1`
Output line: 0.028

* * *

- CONDITION_DETAILS: in isobutanol, 293.15 K
ATTRIBUTE_MEASURED: solubility (mole fraction)

Input line: Could you share which solubility (mole fraction) value was measured for `O=C(O)Cc1ccc([N+](=O)[O-])cc1` ?
Output line: 0.0323

* * *

- CONDITION_DETAILS: in n-butanol, 313.15 K
ATTRIBUTE_MEASURED: solubility (mole fraction)
Could you keep your reply to the number by itself?

Input line: Please report the recorded solubility (mole fraction) for `O=C(O)Cc1ccc([N+](=O)[O-])cc1` .
Output line: 0.117

* * *

- CONDITION_DETAILS: in isobutanol, 298.15 K
ATTRIBUTE_MEASURED: solubility (mole fraction)
Note: the reply should be a number with no unit written.

Input line: Can you share its solubility (mole fraction)? I mean this molecule: `O=C(O)Cc1ccc([N+](=O)[O-])cc1`
Output line: 0.0389

* * *

- CONDITION_DETAILS: in DMAc, 323.15 K
ATTRIBUTE_MEASURED: solubility (mole fraction)
The reply should be a number, written without any unit.

Input line: Give the measured solubility (mole fraction) of `O=C(O)Cc1ccc([N+](=O)[O-])cc1` .
Output line: 0.24

* * *

- CONDITION_DETAILS: in n-propanol, 283.15 K
ATTRIBUTE_MEASURED: solubility (mole fraction)
Field format: numeric only.

Input line: Could you tell me which solubility (mole fraction) is on file for `O=C(O)Cc1ccc([N+](=O)[O-])cc1` ?
Output line: 0.0518
